Each record here notes measured selectivity ratio at 144 h.
assay: Selectivity index, ratio of CC50 for cytotoxicity in human HepAD38 cells assessed as induction of cell killing to EC50 for antiviral activity against HBV infected in human HepAD38 cells assessed as reduction in viral DNA levels incubated for 6 days by PCR analysis; format: toxicity, cell-based; details: read-out: Ratio CC50/EC50
// no unit string in output, number only

As a guide, the following entries are already answered.
Cc1cc(Nc2n[nH]c3ccc(S(=O)(=O)N4CCOCC4)cc23)ccc1F    172
O=S(=O)(c1ccc2c(c1)c(Nc1ccc(F)cc1)nn2C1CC1)N1CCC(O)C1 (centres undefined)    28
O=S(=O)(c1ccc2c(c1)c(Nc1ccc(F)cc1)nn2C1CC1)N1CCC(CO)CC1    23
O=S(=O)(c1ccc2c(c1)c(Nc1ccc(F)cc1)nn2C1CC1)N1CCCC(O)C1 (centres undefined)    76.2
O=S(=O)(c1ccc2c(c1)c(Nc1ccc(F)c(C3CC3)c1)nn2C1CC1)N1CCC(O)CC1    8.6

Below: the item to evaluate.
## Input Find the recorded selectivity ratio at 144 h belonging to "O=S(=O)(c1ccc2c(c1)c(Nc1ccc(F)c(C(F)(F)F)c1)nn2C1CC1)N1CCOCC1" and report it.
## Output 29

---

Each record here notes measured selectivity ratio at 144 h.
test: Selectivity index, ratio of CC50 for cytotoxicity in human HepAD38 cells assessed as induction of cell killing to EC50 for antiviral activity against HBV infected in human HepAD38 cells assessed as reduction in viral DNA levels incubated for 6 days by PCR analysis; assay type: toxicity, cell-based; conditions: read-out: Ratio CC50/EC50
// no unit string in output, number only

As a guide, the following entries are already answered.
O=S(=O)(c1ccc2c(c1)c(Nc1ccc(F)c(C(F)F)c1)nn2C1CC1)N1CCOCC1    417
O=S(=O)(c1ccc2c(c1)c(Nc1ccccc1)nn2C1CC1)N1CCC(O)CC1    44

Below: the item to evaluate.
## Input Find the recorded selectivity ratio at 144 h belonging to "O=S(=O)(c1ccc2c(c1)c(Nc1ccc(F)c(C(F)(F)F)c1)nn2C1CC1)N1CCC(O)CC1" and report it.
## Output 1.3

---

tested on: Hepatitis B virus; test: Antiviral activity against HBV infected in human HepAD38 cells assessed as reduction in viral DNA levels incubated for 6 days by PCR analysis; assay type: functional, organism-based; settings: HePAD38, 144 h
assay-readout: EC50 (nM)
Unit nM implied. Number only.

Cc1cc(Nc2nn(C3CC3)c3cc(F)c(S(=O)(=O)N4CCOCC4)cc23)ccc1F    210
C[C@H](Cn1cnc2c(N)ncnc21)OCP(=O)(O)O [TENOFOVIR ANHYDROUS]    10
Cc1cc(Nc2nn(C3CC3)c3ccc(S(=O)(=O)N4CCC(O)CC4)cc23)ccc1F    32

## Input Record lookup: for Hepatitis B virus, what EC50 belongs to "O=S(=O)(c1cc2c(Nc3cc(F)c(F)c(F)c3)nn(C3CC3)c2cn1)N1CCC(O)CC1" ?
## Output 240

## Input Record lookup: for Hepatitis B virus, what EC50 belongs to CCOC(=O)C1=C(CN2CCOCC2)NC(c2nccs2)=NC1c1ccc(F)cc1Br (centres undefined) ?
## Output 13

## Input Record lookup: for Hepatitis B virus, what EC50 belongs to "O=S(=O)(c1ccc2c(c1)c(Nc1ccc(F)c(C(F)F)c1)nn2C1CC1)N1CCC(O)CC1" ?
## Output 290

---

assay: Cmax in C57BL/6 mouse blood at 100 mg/kg, po measured from 5 mins to 24 hrs by HPLC analysis; format: ADME, organism-based; parameters: dose 100 mg/kg, route oral
assay-readout: Cmax
Form field: result (number plus unit)

Cc1cc(Nc2nn(C3CC3)c3cnc(S(=O)(=O)N4CCC(O)CC4)cc23)ccc1F    1190 nM

Below: the item to evaluate.
## Input Find the recorded Cmax belonging to "Cc1cc(Nc2nn(C3CC3)c3cnc(S(=O)(=O)N4CCC(OC(=O)CN(C)C)CC4)cc23)ccc1F.O=C(O)CC(O)(CC(=O)O)C(=O)O" and report it.
## Output 3730 nM

---

assay: Half life in C57BL/6 mouse at 20 mg/kg, iv measured from 5 mins to 24 hrs by HPLC analysis; type: ADME, organism-based; settings: in vivo
assay-readout: half-life

## Input Find the recorded half-life belonging to "Cc1cc(Nc2nn(C3CC3)c3cnc(S(=O)(=O)N4CCC(O)CC4)cc23)ccc1F" and report it.
## Output 37.8 min

---

assay: Tmax in C57BL/6 mouse blood at 200 mg/kg, po measured from 5 mins to 24 hrs by HPLC analysis; type: ADME, organism-based
assay-readout: Tmax (h)
Unit h implied. Number only.

## Input Find the recorded Tmax belonging to "Cc1cc(Nc2nn(C3CC3)c3cnc(S(=O)(=O)N4CCC(OC(=O)CN(C)C)CC4)cc23)ccc1F.O=C(O)CC(O)(CC(=O)O)C(=O)O" and report it.
## Output 1

---

test system: Hepatitis B virus; assay: Antiviral activity against HBV infected in human HepAD38 cells assessed as reduction in viral DNA levels incubated for 6 days by PCR analysis; format: functional, organism-based; conditions: HePAD38, 144 h
Each record here notes measured EC50.

As a guide, the following entries are already answered.
Cc1cc(Nc2nn(C(F)F)c3ccc(S(=O)(=O)N4CCOCC4)cc23)ccc1F    > 10 µM
N#Cc1cc(Nc2nn(C3CC3)c3ccc(S(=O)(=O)N4CCC(O)CC4)cc23)ccc1F    > 10 µM
O=S(=O)(c1ccc2c(c1)c(Nc1ccc(F)c(C(F)(F)F)c1)nn2C1CC1)N1CCOCC1    0.29 µM
Cc1cc(Nc2nn(C3CC3)c3cnc(S(=O)(=O)N4CCC(O)CC4)cc23)ccc1F    0.034 µM
Nc1ccn([C@@H]2CS[C@H](CO)O2)c(=O)n1 [LAMIVUDINE]    0.07 µM
O=S(=O)(c1ccc2c(c1)c(NCc1ccc(F)cc1)nn2C1CC1)N1CCC(O)CC1    > 10 µM
O=S(=O)(c1ccc2c(c1)c(Nc1ccc(F)cc1)nn2C1CC1)N1CCC(O)CC1    0.22 µM
O=S(=O)(c1ccc2c(c1)c(NC1CCCCC1)nn2C1CC1)N1CCC(O)CC1    > 10 µM
O=S(=O)(c1ccc2c(c1)c(Nc1ccc(F)c(F)c1)nn2C1CC1)N1CCC(O)CC1    0.12 µM
Cc1cc(F)ccc1Nc1nn(C2CC2)c2ccc(S(=O)(=O)N3CCC(O)CC3)cc12    1.15 µM

Below: the item to evaluate.
## Input Find the recorded EC50 belonging to "C=C1[C@H](CO)[C@@H](O)C[C@@H]1n1cnc2c(=O)[nH]c(N)nc21" and report it.
## Output 0.011 µM

---

assay: Cytotoxicity in human HepAD38 cells assessed as induction of cell killing; format: cell-based
assay-readout: CC50

Cc1cc(Nc2nn(C3CC3)c3ccc(S(=O)(=O)N4CCOCC4)cc23)ccc1F    > 100 µM

## Input Find the recorded CC50 belonging to "O=S(=O)(c1ccc2c(c1)c(NC1CCCC1)nn2C1CC1)N1CCC(O)CC1" and report it.
## Output > 100 µM

## Input Find the recorded CC50 belonging to "Cc1cc(Nc2nn(C3CC3)c3ccc(S(=O)(=O)N4CCC(O)CC4)cc23)ccn1" and report it.
## Output 46.6 µM

---

experiment: Solubility in pH 5.8 phosphate buffer at 1 mg at 25 degC by HPLC analysis; type: physicochemical
assay-readout: solubility (µg/mL)
Unit µg/mL implied. Number only.

As a guide, the following entries are already answered.
Cc1cc(Nc2nn(C3CC3)c3cnc(S(=O)(=O)N4CCC(OC(=O)CN(C)C)CC4)cc23)ccc1F.O=C(O)CC(O)(CC(=O)O)C(=O)O    7600
Cc1cc(Nc2nn(C3CC3)c3cnc(S(=O)(=O)N4CCC(OC(=O)CN(C)C)CC4)cc23)ccc1F.Cl    6750
Cc1cc(Nc2nn(C3CC3)c3cnc(S(=O)(=O)N4CCC(OC(=O)CN(C)C)CC4)cc23)ccc1F.O=C(O)/C=C\C(=O)O    7930

## Input Find the recorded solubility belonging to "CS(=O)(=O)O.CS(=O)(=O)O.Cc1cc(Nc2nn(C3CC3)c3cnc(S(=O)(=O)N4CCC(OC(=O)CN(C)C)CC4)cc23)ccc1F" and report it.
## Output 7080

## Input Find the recorded solubility belonging to "Cc1cc(Nc2nn(C3CC3)c3cnc(S(=O)(=O)N4CCC(OC(=O)CN(C)C)CC4)cc23)ccc1F.O=C(O)C(F)(F)F" and report it.
## Output 290

---

experiment: Solubility in water at 1 mg at 25 degC by HPLC analysis; assay type: physicochemical
assay-readout: solubility (µg/mL)
Unit µg/mL implied. Number only.

As a guide, the following entries are already answered.
CC(=O)O.Cc1cc(Nc2nn(C3CC3)c3cnc(S(=O)(=O)N4CCC(OC(=O)CN(C)C)CC4)cc23)ccc1F    1110
Cc1cc(Nc2nn(C3CC3)c3cnc(S(=O)(=O)N4CCC(OC(=O)CN(C)C)CC4)cc23)ccc1F.Cl    6900

## Input Find the recorded solubility belonging to "Cc1cc(Nc2nn(C3CC3)c3cnc(S(=O)(=O)N4CCC(OC(=O)CN(C)C)CC4)cc23)ccc1F" and report it.
## Output 710
